# tgt: Cyno HARS (cynomolgus monkey (Macaca fascicularis))
# measurement notes: SPR (ProteOn); HRS protein immobilized, antibody as analyte
Property: Kd; scope: individual binders
experimental endpoint: Kd (pM)

INSERT INTO results (binder, experimental_endpoint, unit_label, qualifier_sign, readout_value) VALUES
  ('KL31-532 (antibody, V domains shown) VH: QVQLVQSGAEVKKPGASVKVSCKASGYTFTDYCIGWIRQAPGQGLEWMGDICPGDTYTNDNEKFKDRATMTADTSTSTAYMELSSLRSEDTAVYYCARGEEQLGLRNAMDYWGQGTLVTVSS VL: DIVMTQSPDSLAVSLGERATINCQSQSVSTSTYNYMHWYQQKPGQPPKLLIKYASNLESGVPDRFSGSGSGTDFTLTISSLQAEDVATYYCGHSYEIPWTFGGGTKVEIK', 'Kd', 'pM', '=', 56),
  ('AB13-288 (IgG4-2 kappa) (antibody, V domains shown) VH: QVQLVESGGGLVKPGGSLRLSCAASGFTFSDYYMSWIRQAPGKGLEWVSYISDKSRYTKYTDKVRGRFTISRDNAKNSLYLQMNSLRAEDTAVYYCARYLYQVIAIADAWGQGTLVTVSS VL: DIQMTQSPSSVSASVGDRVTITCRASQGISSWLAWFQQKPGKAPKLLIFVASNLESGVPSRFSGSGSGTDFTLTISSLQPEDFATYYCQQAESFPYTFGQGTKLEIK', 'Kd', 'pM', '=', 28),
  ('AB13-112 (IgG4 kappa) (antibody, V domains shown) VH: QVQLVESGGGLVKPGGSLRLSCAASGFTFSDYYMSWIRQAPGKGLEWVSYISDKSRYTKYTDKVRGRFTISRDNAKNSLYLQMNSLRAEDTAVYYCARYLYQVIAIADAWGQGTLVTVSS VL: DIQMTQSPSSVSASVGDRVTITCRASQGISSWLAWFQQKPGKAPKLLIFVASNLESGVPSRFSGSGSGTDFTLTISSLQPEDFATYYCQQAESFPYTFGQGTKLEIK', 'Kd', 'pM', '<', 1),
  ('KL31-241 (antibody, V domains shown) VH: QVQLVQSGAEVKKPGASVKVSCKASGYTFTDYCIGWIRQAPGQGLEWMGDICPGDAYTNDNEKFKDRATMTADTSTSTAYMELSSLRSEDTAVYYCARGEEQLGLRNAMDYWGQGTSVTVSS VL: DIVMTQSPDSLAVSLGERATINCQSQSVSTSTYNYMHWYQQKPGQPPKLLIKYASNLESGVPDRFSGSGSGTDFTLTISSLQAEDVATYYCQHSWEIPWTFGGGTKLEIK', 'Kd', 'pM', '=', 1200),
  ('AB13-112 (IgG1m(za) kappa) (antibody, V domains shown) VH: QVQLVESGGGLVKPGGSLRLSCAASGFTFSDYYMSWIRQAPGKGLEWVSYISDKSRYTKYTDKVRGRFTISRDNAKNSLYLQMNSLRAEDTAVYYCARYLYQVIAIADAWGQGTLVTVSS VL: DIQMTQSPSSVSASVGDRVTITCRASQGISSWLAWFQQKPGKAPKLLIFVASNLESGVPSRFSGSGSGTDFTLTISSLQPEDFATYYCQQAESFPYTFGQGTKLEIK', 'Kd', 'pM', '<', 1);

Just for reference, patent US20180282402A1 is where these values come from.
